Assayed System: Beta-glucuronidase (Bos taurus, UniProt A3KMY8)
Sequence (A3KMY8 whole entry): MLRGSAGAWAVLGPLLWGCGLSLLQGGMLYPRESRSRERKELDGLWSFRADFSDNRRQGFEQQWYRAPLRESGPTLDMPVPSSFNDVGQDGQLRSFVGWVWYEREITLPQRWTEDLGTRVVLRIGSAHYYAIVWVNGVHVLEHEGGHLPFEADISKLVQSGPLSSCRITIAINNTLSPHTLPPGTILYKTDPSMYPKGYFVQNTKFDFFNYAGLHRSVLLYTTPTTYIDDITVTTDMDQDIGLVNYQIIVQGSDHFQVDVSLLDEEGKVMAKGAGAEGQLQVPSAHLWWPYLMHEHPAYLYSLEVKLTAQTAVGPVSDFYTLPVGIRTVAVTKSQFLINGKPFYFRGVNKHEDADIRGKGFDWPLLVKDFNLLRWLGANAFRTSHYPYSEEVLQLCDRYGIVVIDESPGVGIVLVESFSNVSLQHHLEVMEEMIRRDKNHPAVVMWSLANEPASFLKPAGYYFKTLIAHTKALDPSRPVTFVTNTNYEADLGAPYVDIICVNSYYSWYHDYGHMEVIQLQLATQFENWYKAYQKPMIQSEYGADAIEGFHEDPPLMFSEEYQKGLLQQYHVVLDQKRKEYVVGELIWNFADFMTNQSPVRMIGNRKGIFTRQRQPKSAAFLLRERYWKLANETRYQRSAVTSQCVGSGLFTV
Endpoint: IC50 (µM)

Cc1ccc(Nc2nnc(-c3ccc(C)cc3C)s2)cc1; 34.2
COc1ccc(-c2nnc(Nc3ccc(Br)cc3)s2)c(OC)c1; 29.7
Cc1ccc(Nc2nnc(-c3ccccc3)s2)cc1; 48.4

a = Cc1ccc(-c2nnc(Nc3cccc(Br)c3)s2)c(C)c1
b = Brc1ccc(-c2nnc(Nc3cccc(Br)c3)s2)cc1
Problem: Given the entries a and b , determine which has the lower reported IC50. Returns: label corresponding to the selected item.
b
(b: 17.3 µM, a: 36.1 µM)
